Molecular target: Type-1 angiotensin II receptor (Homo sapiens, UniProt P30556)
Sequence (P30556 whole entry): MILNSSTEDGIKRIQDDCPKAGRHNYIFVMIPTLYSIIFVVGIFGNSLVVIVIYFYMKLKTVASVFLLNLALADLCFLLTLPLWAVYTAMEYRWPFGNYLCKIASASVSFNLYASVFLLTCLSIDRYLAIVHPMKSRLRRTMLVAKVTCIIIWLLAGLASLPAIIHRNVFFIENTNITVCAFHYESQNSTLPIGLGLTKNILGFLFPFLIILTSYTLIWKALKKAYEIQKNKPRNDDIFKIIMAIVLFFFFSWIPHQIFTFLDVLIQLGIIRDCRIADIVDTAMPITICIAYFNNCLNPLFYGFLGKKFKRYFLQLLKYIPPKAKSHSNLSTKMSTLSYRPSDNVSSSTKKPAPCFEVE
Assay: Displacement of 125[I-Sar1-Ile8]ANG II from human AT1 receptor expressed in HEK293 membranes after 1 hr by gamma counting
Format: cell membranes
Conditions: read-out: IC50
measurement-label: log10 IC50 (log10 of the value in nM)
Please interpret these as log10 of IC50 where IC50 is in nM.

Worked examples follow.
smiles-text: CCCCc1cnc(CO)n1Cc1ccc(-c2ccccc2C(=O)O)cc1
log10 IC50: 2.39
//
smiles-text: CCCCc1c(I)nc(CO)n1Cc1ccc(-c2ccccc2-c2nnn[nH]2)cc1
log10 IC50: 2.65
//
smiles-text: CCCCc1cnc(C(=O)O)n1Cc1ccc(-c2ccccc2-c2nnn[nH]2)cc1
log10 IC50: 0.48
//
smiles-text: CCCCc1c(Br)nc(CO)n1Cc1ccc(-c2ccccc2-c2nnn[nH]2)cc1
log10 IC50: 2.07
//
smiles-text: CCCCc1c(Cl)nc(CO)n1Cc1ccc(-c2ccccc2-c2nn[nH]n2)cc1
log10 IC50: 2.80

Item CCCCc1cnc(C=O)n1Cc1ccc(-c2ccccc2-c2nn[nH]n2)cc1 ; assay system Type-1 angiotensin II receptor (Homo sapiens, UniProt P30556); log10 IC50 reported as 1.38

Item CCCCc1cnc(CO)n1Cc1ccc(-c2ccccc2-c2nnn[nH]2)cc1 ; assay system Type-1 angiotensin II receptor (Homo sapiens, UniProt P30556); log10 IC50 reported as 1.48
